Property: isoTOP-ABPP ratio (R) at liganded lysine Q13630_K108; scope: individual compounds
- SYSTEM NAME: TSTA3 GDP-L-fucose synthase (Homo sapiens, UniProt Q13630)
- Construct: isoTOP-ABPP experiments performed in cell lysates (in vitro); endogenous in cells; host or cells: soluble proteome of human cancer cell lines (MDA-MB-231, Ramos, Jurkat)
- Sequence (Q13630 whole entry): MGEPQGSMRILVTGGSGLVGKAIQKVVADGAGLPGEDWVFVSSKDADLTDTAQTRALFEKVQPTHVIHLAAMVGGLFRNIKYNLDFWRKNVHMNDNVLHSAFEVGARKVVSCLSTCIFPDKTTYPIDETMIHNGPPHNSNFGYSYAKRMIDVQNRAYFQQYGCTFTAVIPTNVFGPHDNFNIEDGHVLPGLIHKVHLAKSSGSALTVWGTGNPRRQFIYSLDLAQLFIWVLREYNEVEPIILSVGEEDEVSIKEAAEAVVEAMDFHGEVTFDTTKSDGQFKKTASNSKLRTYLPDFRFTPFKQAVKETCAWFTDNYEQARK
- ASSAY: competitive isoTOP-ABPP
- Format: binding
- CONDITION DESCRIPTION: 50 uM, in vitro, sol, 231
No unit in the answer, only the number.

Recorded results for 4 compounds are shown here.
O=C(Oc1ccc([N+](=O)[O-])cc1[N+](=O)[O-])C(c1ccccc1)(c1ccccc1)c1ccccc1 [fragment 42, 2,4-Dinitrophenyl 2,2,2-triphenylacetate]	1.0
O=C(Oc1ccc([N+](=O)[O-])cc1[N+](=O)[O-])c1ccccc1Nc1cccc(C(F)(F)F)c1	0.9
O=C(CC12CC3CC(CC(C3)C1)C2)Oc1ccc([N+](=O)[O-])cc1[N+](=O)[O-]	0.9
CC(C)(C)OC(=O)NCCCC(=O)Oc1ccc([N+](=O)[O-])cc1[N+](=O)[O-]	1.3

Now take the following compound into account.
For O=C(Oc1ccc([N+](=O)[O-])cc1[N+](=O)[O-])c1ccc(-c2ccccc2)cc1 , what is its reported isoTOP-ABPP ratio (R) at liganded lysine Q13630_K108?
2.9

Hey, just so you know, these numbers are from patent US20210255193A1.
